Just for reference, patent US9096560B2 is where these values come from.

# System: Echinochloa crus-galli (ECHCG)
# experiment-summary: Example B post-emergence herbicidal test, ECHCG
# Format: in vivo
# test-settings: Echinochloa crus-galli, 312 h, rate 250 g/ha, evaluated after 13 days, scale 0-100, read-out: Post-emergence activity ECHCG (100=total damage to plant; 0=no damage to plant)
measured-parameter: pest or weed control at 250 g/ha (%)
Your answer should be a plain number; it is taken to be in %.

Some solved cases for reference:
>>> df
                                   compound                    study_system  measured_result
0  Cc1cc(C)c(C2C(=O)CC(CC3CCCOC3)C2=O)c(C)c1 (stereo not drawn) [Compound T16]  Echinochloa crus-galli (ECHCG)              100
1  Cc1cc(C)c(C2C(=O)CC(CC3CCN(S(C)(=O)=O)C3)C2=O)c(C)c1 (stereo not drawn) [Compound T36]  Echinochloa crus-galli (ECHCG)               90
2  Cc1cc(C)c(C2C(=O)CC(CC3CCN(C(=O)OC(C)C)CC3)C2=O)c(C)c1 (stereo not drawn) [Compound T107]  Echinochloa crus-galli (ECHCG)               60
3  Cc1cc(C)c(C2=C(OC(=O)C(C)(C)C)C/C(=C\C3CCSCC3)C2=O)c(C)c1 [Compound P9]  Echinochloa crus-galli (ECHCG)               50
4  Cc1cc(C)c(C2C(=O)CC(CC3CCN(C(=O)C(C)(C)C)CC3)C2=O)c(C)c1 (stereo not drawn) [Compound T79]  Echinochloa crus-galli (ECHCG)               70
5  Cc1cc(C)c(C2=C(OC(=O)OC(C)C)CC(CC3CCOCC3)C2=O)c(C)c1 (stereo not drawn) [Compound P43]  Echinochloa crus-galli (ECHCG)              100

Task item: Report pest or weed control at 250 g/ha for Cc1cc(C)c(C2=C(OC(=O)c3ccco3)CC(CC3CCN(C(=O)c4ccco4)C3)C2=O)c(C)c1 (stereo not drawn) [Compound P62] tested on Echinochloa crus-galli (ECHCG).
Reply: 70

Task item: Any idea what pest or weed control at 250 g/ha came out for CCCC(=O)N1CCC(CC2CC(=O)C(c3c(C)cc(C)cc3C)C2=O)CC1 (stereo not drawn) [Compound T84] on Echinochloa crus-galli (ECHCG)?
Reply: 90

Task item: Please tell me: pest or weed control at 250 g/ha of Cc1cc(C)c(C2=C(OC(=O)OCC(C)(C)C)CC(CC3CCOC3)C2=O)c(C)c1 (stereo not drawn) [Compound P24] , system Echinochloa crus-galli (ECHCG)?
Reply: 90

* * *

# Tested on: Lolium perenne (LOLPE)
# experiment-summary: Example B post-emergence herbicidal test, LOLPE
# Type: in vivo
# test-settings: Lolium perenne, 312 h, rate 250 g/ha, evaluated after 13 days, scale 0-100, read-out: Post-emergence activity LOLPE (100=total damage to plant; 0=no damage to plant)
measured-parameter: pest or weed control at 250 g/ha
Please append the unit to your numeric answer.

Completed entries (count: 5):
In [3]: df
Out[3]:
                                   molecule            study_system                measured_parameter  measured_result
0  Cc1cc(C)c(C2C(=O)CC(CC3CCN(C(=O)c4ccc(C(F)(F)F)cc4)CC3)C2=O)c(C)c1 (centres unmarked) [Compound T99]  Lolium perenne (LOLPE)  pest or weed control at 250 g/ha              50%
1  Cc1cc(C)c(C2C(=O)CC(CC3CCN(C(=O)c4ccc(Cl)c(Cl)c4)CC3)C2=O)c(C)c1 (centres unmarked) [Compound T74]  Lolium perenne (LOLPE)  pest or weed control at 250 g/ha              40%
2  CC(=O)N1CCC(/C=C2\CC(=O)C(c3c(C)cc(C)cc3C)C2=O)CC1 (centres unmarked) [Compound T15]  Lolium perenne (LOLPE)  pest or weed control at 250 g/ha             100%
3  Cc1cc(C)c(C2C(=O)CC(CC3CCN(C(=O)OC(C)C)CC3)C2=O)c(C)c1 (centres unmarked) [Compound T107]  Lolium perenne (LOLPE)  pest or weed control at 250 g/ha              90%
4  CCSC(=O)OC1=C(c2c(C)cc(C)cc2C)C(=O)C(CC2CCOC2)C1 (centres unmarked) [Compound P30]  Lolium perenne (LOLPE)  pest or weed control at 250 g/ha             100%

Task item: Tell me the measured pest or weed control at 250 g/ha of Cc1cc(C)c(C2=C(OC(=O)OC(C)C)CC(CC3CCOCC3)C2=O)c(C)c1 (centres unmarked) [Compound P43] , please.
Reply: 100%

Task item: Give the measured pest or weed control at 250 g/ha of CCCCC(=O)N1CCC(CC2CC(=O)C(c3c(C)cc(C)cc3C)C2=O)CC1 (centres unmarked) [Compound T85] .
Reply: 90%

Task item: Report pest or weed control at 250 g/ha for CCCCS(=O)(=O)N1CCC(CC2CC(=O)C(c3c(C)cc(C)cc3C)C2=O)CC1 (centres unmarked) [Compound T96] please.
Reply: 60%
